test: Aqueous solubility of compound at 2 mg measured for 24 hrs by HPLC analysis; format: physicochemical; conditions: aqueous medium
Listed below: solubility at 24 h values for each entry.

Here's what some known entries look like.
| smiles-record | solubility at 24 h |
| --- | --- |
| CC(=O)O.N#Cc1ccc(Nc2nccc(Nc3c(F)cc(-c4ccc(C#N)cc4)cc3F)n2)cc1 | 0.34 µg/mL |
| N#Cc1ccc(Nc2nccc(Nc3c(F)cc(-c4ccc(C#N)cc4)cc3F)n2)cc1.O=S(=O)(O)O | 0.36 µg/mL |

Per the records, this compound ( "Cc1cc(-c2ccc(C#N)cc2)cc(C)c1Nc1ccnc(Nc2ccc(C#N)cc2)n1" ) has solubility at 24 h equal to < 1 µg/mL

Per the records, this compound ( "N#Cc1ccc(Nc2nccc(Nc3c(F)cc(-c4ccc(C#N)cc4)cc3F)n2)cc1.O=C(O)C(F)(F)F" ) has solubility at 24 h equal to 0.35 µg/mL

Per the records, this compound ( "Cc1cc(C#N)cc(C)c1Oc1nc(Nc2ccc(C#N)cc2)nc(N)c1Br" ) has solubility at 24 h equal to < 1 µg/mL
